test-name: Rat IV and PO PK studies
Format: in vivo, male Sprague-Dawley rats
experimental-context: male, Sprague-Dawley, plasma, intravenous, 3.0 mg/kg, read-out: Rat iv CL
Returns the class for an entry based on its clearance. Class ranges: group A = under 3 mL/min/kg, group B = from 3 mL/min/kg up to 7 mL/min/kg, group C = 7 mL/min/kg and over

Completed entries (count: 3):
{"molecule": "Cc1ccc(S(=O)(=O)NC(=O)c2ccc(-n3ccc(OCC4(C(F)(F)F)CC4)n3)nc2N2C[C@@H](C)CC2(C)C)cc1", "assigned-category": "group A"}
{"molecule": "C[C@@H]1CN(c2nc(-n3ccc(OCC4(C(F)(F)F)CC4)n3)ccc2C(=O)NS(=O)(=O)c2ccc(O)cc2)C(C)(C)C1", "assigned-category": "group B"}
{"molecule": "C[C@@H]1CN(c2nc(-n3ccc(OCCC(C4CC4)C4CC4)n3)ccc2C(=O)NS(=O)(=O)c2ccccc2)C(C)(C)C1", "assigned-category": "group B"}

QUERY: Could you tell me which band C[C@@H]1CN(c2nc(-n3ccc(OCCC4(C(F)(F)F)CC4)n3)ccc2C(=O)NS(=O)(=O)c2cccc(F)c2)C(C)(C)C1 belongs to?
RESULT: group C

QUERY: Could you tell me which band C[C@@H]1CN(c2nc(-n3ccc(OCC4C(C)(C)C4(C)C)n3)ccc2C(=O)NS(=O)(=O)c2ccccc2)C(C)(C)C1 belongs to?
RESULT: group B
